These measurements were taken from patent US20090169562A1.

Reported OD492 nm values for a set of binders
system: T1, bovine serum albumin (BSA) (bovine, UniProt P02769 25-607)
T1 construct: Control antigen coated at 1% in PBS (pH 7.4); also called negative control antigen
T1 sequence (P02769 25-607 limits assumed): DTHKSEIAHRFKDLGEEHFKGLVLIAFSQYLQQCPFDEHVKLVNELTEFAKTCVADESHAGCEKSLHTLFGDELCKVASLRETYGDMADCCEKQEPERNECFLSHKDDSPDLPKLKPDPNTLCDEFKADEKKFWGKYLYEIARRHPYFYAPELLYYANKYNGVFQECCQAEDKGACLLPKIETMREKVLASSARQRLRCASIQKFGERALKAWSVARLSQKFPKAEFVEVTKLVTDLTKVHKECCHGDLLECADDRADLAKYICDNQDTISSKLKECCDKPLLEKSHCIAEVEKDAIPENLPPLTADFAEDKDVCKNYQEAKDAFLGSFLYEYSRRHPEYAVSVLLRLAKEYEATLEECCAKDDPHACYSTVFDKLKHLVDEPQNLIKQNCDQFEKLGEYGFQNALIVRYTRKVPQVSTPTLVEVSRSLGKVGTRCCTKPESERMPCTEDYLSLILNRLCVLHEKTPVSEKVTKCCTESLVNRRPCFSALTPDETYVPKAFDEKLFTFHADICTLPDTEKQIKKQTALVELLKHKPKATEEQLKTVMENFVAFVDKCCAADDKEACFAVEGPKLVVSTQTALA
test_summary: phage ELISA, 1% BSA coated, anti-M13-HRP detection

| binder | OD492 nm (OD492 nm) |
| --- | --- |
| SC06-191 (scFv, Vl 137-243); also called single-chain phage antibody SC06-191) scFv: EVQLVESGGGVVQPGRSLRLSCVASEFTFSNYGMHWVRQAPGKGLEWVAVIWYDGSNEDYADSVKGRFTISRDNSKNTVYLHMNSLRAEDTAVYFCTRGQYSSTWFLDYWGQGTLVTVSSGTGGSGGTGSGTGGSTDIQLTQSPSTLSASVGDRVTITCRASQSISSWLAWYQQKPGKAPKLLIYKASSLETGVPSRFSGSGSGTDFTLTISSLQPEDFATYYCQQANSFPLTFGGGTKVDIK | 0.044 |
| SC06-432 (scFv, Vl 137-246); also called single-chain phage antibody SC06-432) scFv: QLQLQESGPGLVKPSQTLSLTCTVSGGSISSGGYYWSWIRQHPGKGLEWIGYIYYSGSTYYNPSLKSRVTISVDTSKNQFSLKLSSVTAADTAVYYCARERILDRMNDYWGQGTLVTVSSGTGGSGGTGSGTGGSTQSVVTQPPSVSGAPGQRVTISCTGSSSNIGAGYDVHWYQQLPGTAPKLLIYGNSNRPSGVPDRFSGSKSGTSASLAITGLQAEDEADYYCQSSDSSLNILFGGGTKLTVL | 0.059 |
| SC06-409 (scFv, Vl 139-249); also called single-chain phage antibody SC06-409) scFv: EVQLVQSGAEVKKPGESLKISCKGSGYSFTNYWIGWVRQMPGKGLEWMGIIYPGDSDTRYSPSFQGQVTISADKSISTAYLQWSSLKASDTAMYYCARHTQNKNGMNTFDIWGQGTMVTVSSGTGGSGGTGSGTGGSTQSALTQPPSASGSPGQSVTISCTGTSSDIGGYNYVSWYQQHPGKAPKLMIYEVSNRPPGVSNRFSGSKSGNTASLTISGLQAEDEADYYCSSYSTTTTRVIFGGGTKLTVL | 0.055 |
